The measurements presented in this section are drawn from PubChem BioAssay (NCI).

Tested on: NCI-H522 lung
Test: NCI-60 one-dose screen, 48 h (100 = growth as untreated, 0 = no growth, -100 = all killed)
Conditions: 10 µM unless noted
About 83,000 compounds went through this panel and 20% of them were active in at least one assay; those are over-represented in the sample as a whole.
growth values, listed per item
ENDPOINT_LABEL: growth (%)

>>> result_number("COc1ccc(C2CC(c3ccc4ccccc4c3)=NN2c2nc(O)c(C3=c4cc(OC)ccc4=NC3=O)s2)cc1 (configuration not stated)")
-74.1
>>> result_number("CCN=C1C=CC(=C(c2ccc(N(CC)CC)cc2)c2ccc(N(CC)CC)cc2)c2ccccc21")
-65.5
>>> result_number("COc1cc(NCc2cn(-c3ccc(C(=O)O)cc3)nc2-c2ccc(C(=O)O)cc2)cc(OC)c1OC")
101
>>> result_number("COc1c(C(C)=O)c(OCCCCOc2c(C(C)=O)c(OC)c3ccoc3c2OC)c(OC)c2occc12")
-7.73
>>> result_number("Clc1ccc(/C=N/Nc2nc3ccccc3s2)c(Cl)c1")
97.2
>>> result_number("N#C/C(C(=O)c1ccccc1)=C1/C(=O)Nc2ccc(Br)cc21")
99.1
>>> result_number("CC(=O)CC(=O)SC1=NCCS1")
95.8

* * *

Test system: RXF 393 renal
Assay: NCI-60 one-dose screen, 48 h
Details: 10 µM unless noted
This is part of a sample that, as a whole, favours compounds with a hit. Of some 83,000 tested, about 20% had one in any assay. Calls of active or inactive are those of the source. How the source made its calls: active means growth percent below 10; inactive means the rest.
Labels: active, inactive

>>> answer_label("Ic1ccc2[nH]cc(SSc3c[nH]c4ccc(I)cc34)c2c1")
"inactive"
>>> answer_label("CC(C)C1=NOC(=O)C1=Cc1cn(-c2ccco2)nc1-c1ccccc1")
"inactive"
>>> answer_label("C#C[C@]1(O)CC[C@H]2[C@@H]3CC=C4c5nc(Nc6ccccn6)sc5CC[C@]4(C)[C@H]3CC[C@@]21C")
"active"
>>> answer_label("COC(=O)c1c(C)[nH]c(/C=C2\\N=C(c3ccc[nH]3)C=C2OC)c1C")
"active"
>>> answer_label("O=C(CCN1CCCCC1)c1ccc(Cl)cc1")
"inactive"
>>> answer_label("CNC(=O)c1cc(Oc2ccc3nc(NC(=O)c4ccc5ncccc5c4)sc3c2)ccn1")
"inactive"
>>> answer_label("O=C(O)c1cc([N+](=O)[O-])ccc1Br")
"inactive"
>>> answer_label("COc1ncnc2c(-c3ccccc3)cn(COCc3ccccc3)c12")
"inactive"
>>> answer_label("CSc1nc2c(c(=O)n1C)C1(C(=O)N(Cc3ccccc3)c3ccccc31)c1c(nc(SC)n(C)c1=O)N2")
"inactive"
>>> answer_label("CCCSc1nc(N)nc2nc[nH]c12")
"inactive"
>>> answer_label("O=C(NNc1ccc(-c2ccccc2)nn1)c1ccccc1")
"inactive"
>>> answer_label("Cn1cc(-c2nnc(-c3cn(C)c4ncccc34)s2)c2ccccc21")
"inactive"
>>> answer_label("CC1(C)CC[C@]2(C(=O)O)CC[C@]3(C)C(=CC[C@@H]4[C@@]5(C)C/C(=C/c6ccco6)C(=O)C(C)(C)[C@@H]5CC[C@]43C)[C@@H]2C1")
"active"
>>> answer_label("COc1ncc(-c2ccc3nccc(C#CCCCCC(=O)NO)c3c2)cc1NS(=O)(=O)c1ccc(F)cc1F")
"active"
>>> answer_label("O=C1NC(=O)C(Cc2ccccc2)(Cc2ccccc2)N1")
"inactive"
>>> answer_label("CCCCCN(CCCCC)CCCCCCCCN1CCCc2ccccc21")
"inactive"
>>> answer_label("O=C(OCc1ccc2c(Cl)cc(Cl)c(O)c2n1)N1CCN(C(=O)c2cc3cc(F)ccc3[nH]2)CC1")
"inactive"
>>> answer_label("C=C(C)[C@@H]1CC[C@]2(COC(=O)c3ccccc3C(=O)O)CC[C@]3(C)[C@H](CC[C@@H]4[C@@]5(C)CC[C@H](OC(=O)c6ccccc6C(=O)O)C(C)(C)[C@@H]5CC[C@]43C)[C@@H]12")
"active"
>>> answer_label("COc1ccc2nc3c(cc2c1)C(=O)CC(c1ccccc1)C3 (stereo unspecified)")
"active"
>>> answer_label("COc1cc(NCc2cn(-c3ccc(C(=O)O)cc3)nc2-c2ccc(C(=O)O)cc2)cc(OC)c1OC")
"inactive"
>>> answer_label("O=C(Nc1ccc(CN2CCOCC2)c(C(F)(F)F)c1)c1nc2ccc3[nH]ncc3c2c2c1CCCC2")
"inactive"
>>> answer_label("CCOC(=O)c1nn(C2CCCCO2)c2ccc(NS(=O)(=O)c3ccc(C)cc3)cc12 (stereo unspecified)")
"inactive"
>>> answer_label("COc1ccc(C(=O)/C=C/c2ccccn2)c(O)c1")
"inactive"
>>> answer_label("Nc1cc(N)c(N=Nc2ccc(S(=O)(=O)O)cc2)cc1N=Nc1ccc(-c2ccc(N=Nc3ccc(O)c(C(=O)O)c3)cc2)cc1")
"inactive"
>>> answer_label("O=C(NCc1ccc(Cn2c(=O)sn(-c3ccccc3)c2=O)cc1)OCc1ccc2c(Br)cc(Br)c(O)c2n1")
"active"
>>> answer_label("O=C(CSc1nc2ccc([N+](=O)[O-])cc2[nH]1)Nc1ccc(F)c(Cl)c1")
"inactive"

* * *

System: SF-295 CNS
Assay: NCI-60 one-dose screen, 48 h
Conditions: 10 µM unless noted
This is part of a sample that, as a whole, favours compounds with a hit. Of some 83,000 tested, about 20% had one in any assay. Calls of active or inactive are those of the source. Rule for the calls: active = growth percent below 10; inactive = the rest.
Outcomes: 1 (active), 0 (inactive)

>>> answer_label("COc1ccc2c(c1)C(C)Cc1c(ncnc1-n1cnc3ccccc31)N2C (centres undefined)")
0
>>> answer_label("Cn1cc(-c2nnc(-c3cn(C)c4ncccc34)o2)c2ccccc21")
0
>>> answer_label("C=C(C)[C@@H]1CC[C@]2(COC(=O)c3ccccc3C(=O)O)CC[C@]3(C)[C@H](CC[C@@H]4[C@@]5(C)CC[C@H](OC(=O)c6ccccc6C(=O)O)C(C)(C)[C@@H]5CC[C@]43C)[C@@H]12")
0
>>> answer_label("COc1ccc2[nH]c(C(=O)N3CCN(C(=O)OCc4ccc5c(Br)cc(Br)c(O)c5n4)CC3)cc2c1")
1

* * *

Tested on: UACC-257 melanoma
Assay: NCI-60 one-dose screen, 48 h
Conditions: 10 µM unless noted
Compounds without any hit were thinned out: in the full panel of roughly 83,000, 20% have a hit. The source made the active and inactive calls. How the source made its calls: active means growth percent below 10; inactive means the rest.
Outcome codes: active, inactive

>>> answer_label("Cc1ccc(Cn2c(O)c(N=NC(=O)c3ccc(S(N)(=O)=O)cc3)c3ccccc32)cc1")
"inactive"
>>> answer_label("COc1ccc(/C=C(/C2=NCCN2)n2ccc3ccccc32)cc1")
"inactive"
>>> answer_label("Cc1cccc(C[C@H](NC(=O)Nc2ccc(Cl)cc2F)C(=O)N[C@@H]2C(=O)N3C[C@H](O)C[C@H]3C(=O)N3CCCC[C@H]3C(=O)N[C@@H](C)C(=O)N3C[C@H](C)C[C@H]3C(=O)O[C@H]2C)c1")
"inactive"
>>> answer_label("COc1cc(C)cc2oc3oc(=O)c(C(=O)c4cc5cc(Br)ccc5o4)cc3c(=O)c12")
"inactive"
>>> answer_label("Cc1cnc(N)nc1OCC(C)(C)CNC(=O)c1cccc(-c2ccc(S(=O)(=O)Nc3ccc4c(c3)N(C(=O)C3CC3)CCC4)cc2)c1")
"inactive"
>>> answer_label("CC(C)OC(=O)Nc1cc(F)ccc1F")
"inactive"
>>> answer_label("N#C/C(C(=O)c1ccccc1)=C1/C(=O)Nc2ccccc21")
"inactive"
>>> answer_label("COc1ccc(-c2c(C)nn3c(NCCN4CCOCC4)cc(C)nc23)cc1OC")
"inactive"
>>> answer_label("CC1(C)CC[C@]2(C(N)=O)CC[C@]3(C)C(=CC[C@@H]4[C@@]5(C)C/C(=C/c6cccnc6)C(=O)C(C)(C)[C@@H]5CC[C@]43C)[C@@H]2C1")
"active"
>>> answer_label("O=C1C(Cl)=C(Nc2ccc3cn[nH]c3c2)C(=O)c2ccccc21")
"inactive"
>>> answer_label("CCCCOC(=O)c1c(C)[nH]c(/C=C2\\N=C(c3ccc[nH]3)C=C2OC)c1C")
"active"
>>> answer_label("O=c1[nH]cnc2c1ccn2C1OC(CO)C(O)C1O (stereo not drawn)")
"inactive"
>>> answer_label("CCOC(=O)COc1ccc2c(c1)O/C(=C\\c1ccc(O)cc1)C2=O")
"inactive"

* * *

System: SK-MEL-2 melanoma
Test: NCI-60 one-dose screen, 48 h
Conditions: 10 µM unless noted
The panel holds about 83,000 compounds, 20% with a hit somewhere; the sample as a whole holds those more often. Calls of active or inactive are those of the source. The calls were made as follows: active = growth percent below 10; inactive = the rest.
Classes used: active, inactive

>>> answer_label("C#C[C@]1(O)CC[C@H]2[C@@H]3CC=C4c5nc(N)sc5CC[C@]4(C)[C@H]3CC[C@@]21C")
"inactive"
>>> answer_label("CC1Cc2c(Cl)ncnc2N(C)c2ccc(Cl)cc21 (stereo unspecified)")
"active"
>>> answer_label("CSc1cccc([N+](=O)[O-])c1")
"inactive"
>>> answer_label("C[C@H]1[C@H](C)CC[C@]2(C(=O)O)CC[C@]3(C)C(=CC[C@@H]4[C@@]5(C)C/C(=C/c6cccnc6)[C@H](O)C(C)(C)[C@@H]5CC[C@]43C)[C@H]12")
"active"
>>> answer_label("O=C(O)c1cccc(CN2CCN(c3cc4c(cc3F)c(=O)c(C(=O)O)cn4C3CC3)CC2)c1O")
"inactive"
>>> answer_label("COc1ccc(-c2cc(-c3ccc(OC)c(OC)c3)nc(SCCCCCC(=O)NO)n2)cc1")
"inactive"
>>> answer_label("CC[C@@H]1NC(=O)[C@@H]2CCCCN2C(=O)[C@@H]2CCCN2C(=O)[C@@H](NC(=O)[C@H](Cc2cc(F)cc(F)c2)NC(=O)Nc2ccc(C3CC3)cc2F)[C@H](C)OC(=O)[C@@H]2C[C@@H](C)CN2C1=O")
"active"
>>> answer_label("CN(Cc1cccc(C(F)(F)F)c1)C(=O)[C@@H](CC(=O)N1CCC(N2CCCCC2)CC1)N1C(=O)[C@@H](N2C(=O)OC[C@@H]2c2ccccc2)[C@H]1/C=C/c1ccccc1")
"inactive"
>>> answer_label("Nc1cc(Cl)cc2cccnc12")
"inactive"
>>> answer_label("Cc1ccc(S(=O)(=O)NCCCNc2nccc(-c3c(-c4cccc(F)c4)nc4occn34)n2)cc1")
"inactive"
>>> answer_label("COc1cc2c(c(OC)c1)C1c3cc(OC)ccc3NC(=O)N1CC2 (stereo unspecified)")
"inactive"
